# soluble fraction (log2) per entry
# assay.text: soluble fraction after stress (log2 fold change); higher = more stays soluble; pooled small domains, quantitative proteomics;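 further: 20 min heating vs room temperature control held 20 min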
# assay.context: stress: 75 degC
Form field (numeric): enter value without unit.

Worked set:
HMSNEITVPDLSGMSLEELETILSDRSLSYEIIDSIYNSTAKKGTVSSQDPLPDAKVKSGRTIYITVVSKL ... -1.85
HMEANPLTDREKEVLELVADGKNTKEIAQELSIKSGTVRNYISMILEKLEVKNRIEAITRSKEKGWF ... -0.161

Q: Supply recorded soluble fraction (log2) for "HMPVNEEFKRLIDKIKYEFSINQAQISERLGVKSTYLSDMINGRVPYNESMQKKIHEVFHIG" here.
Result: -0.424

Q: Supply recorded soluble fraction (log2) for "HMKGRPTTAIITDERTNLRSGPGATNKTIAQAGAGEKLAIIDEKDGWYQVSRAGINGWVAGWVIDVAW" here.
Result: -1.83

Data credit: the domain aggregation screens of Martell et al. (2025)
